# ASSAY_TARGET: USP28 (Homo sapiens, UniProt Q96RU2)
# Construct: purchased R&D Systems
# Sequence (Q96RU2 1-1077): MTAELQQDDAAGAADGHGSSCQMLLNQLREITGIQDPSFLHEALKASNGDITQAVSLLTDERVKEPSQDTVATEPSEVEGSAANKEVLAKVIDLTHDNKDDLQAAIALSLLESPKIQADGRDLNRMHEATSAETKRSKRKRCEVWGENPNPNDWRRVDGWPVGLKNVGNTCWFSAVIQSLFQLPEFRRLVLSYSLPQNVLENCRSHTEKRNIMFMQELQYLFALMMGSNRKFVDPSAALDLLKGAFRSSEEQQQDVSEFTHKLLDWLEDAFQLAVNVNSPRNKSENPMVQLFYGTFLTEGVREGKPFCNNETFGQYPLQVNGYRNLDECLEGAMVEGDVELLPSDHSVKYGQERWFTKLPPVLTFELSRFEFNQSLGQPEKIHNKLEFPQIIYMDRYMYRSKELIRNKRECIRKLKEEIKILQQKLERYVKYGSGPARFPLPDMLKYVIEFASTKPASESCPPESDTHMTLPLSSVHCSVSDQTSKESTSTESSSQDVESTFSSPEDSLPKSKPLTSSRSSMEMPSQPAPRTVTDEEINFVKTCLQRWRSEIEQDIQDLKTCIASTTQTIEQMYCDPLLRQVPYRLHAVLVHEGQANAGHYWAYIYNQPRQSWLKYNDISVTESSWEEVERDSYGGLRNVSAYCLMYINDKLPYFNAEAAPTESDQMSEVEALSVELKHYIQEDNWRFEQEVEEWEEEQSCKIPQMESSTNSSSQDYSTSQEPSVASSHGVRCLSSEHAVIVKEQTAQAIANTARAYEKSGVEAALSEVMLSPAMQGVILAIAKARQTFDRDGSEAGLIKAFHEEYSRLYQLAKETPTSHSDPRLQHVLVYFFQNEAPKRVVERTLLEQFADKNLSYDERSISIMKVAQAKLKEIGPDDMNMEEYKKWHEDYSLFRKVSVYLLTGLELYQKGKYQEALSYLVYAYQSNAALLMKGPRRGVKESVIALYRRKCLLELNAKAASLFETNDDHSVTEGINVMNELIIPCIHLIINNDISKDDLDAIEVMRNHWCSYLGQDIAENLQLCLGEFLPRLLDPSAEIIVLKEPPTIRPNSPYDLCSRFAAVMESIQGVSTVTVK
# MEASUREMENT_PROTOCOL: USP28 activity measured using ubiquitin-rhodamine 110 method
# Assay type: biochemical
# ASSAY_CONTEXT: ratio of IC50 of related 3-NH2 compound (F) to IC50 of 3-NHMe compound disclosed herein (E)
Consider the cut-off 9. If the recorded IC50(F)/IC50(E) USP28 is strictly smaller, the label is y; if not, the label is n.

Ask: Identify whether the molecule `CNc1c(C(=O)NCCc2c[nH]c3ccccc23)sc2nc(C)ccc12` records IC50(F)/IC50(E) USP28 below 9.
Reply: y

Ask: Identify whether the molecule `CNc1c(C(=O)NCCc2ccc(N3C[C@H]4CC[C@@H](C3)N4)c(F)c2)sc2nc(C)cnc12` records IC50(F)/IC50(E) USP28 below 9.
Reply: n

Ask: Identify whether the molecule `CNc1c(C(=O)NCCc2ccc(OC)c(OC)c2)sc2nc(C)ccc12` records IC50(F)/IC50(E) USP28 below 9.
Reply: y

Ask: Identify whether the molecule `CNc1c(C(=O)NCCc2ccc(N3C[C@H]4CC[C@@H](C3)N4)cc2)sc2nc(C)ccc12` records IC50(F)/IC50(E) USP28 below 9.
Reply: n

Ask: Identify whether the molecule `CNc1c(C(=O)N[C@H]2CCc3cc(N4CC5CCC(C4)N5)ccc3C2)sc2nc(C)ccc12` records IC50(F)/IC50(E) USP28 below 9.
Reply: y

====

# ASSAY_TARGET: USP25 (Homo sapiens)
# Construct: purchased R&D Systems
# MEASUREMENT_PROTOCOL: USP25 activity measured using ubiquitin-rhodamine 110 method
# Type: biochemical
# ASSAY_CONTEXT: purified USP25 15 nM, ubiquitin-rhodamine 110 125 nM, 30 min preincubation; read-out: Inhibitory activity against USP25 (IC50)
Consider the following molecules; for each one, report its IC50.

Ask: I'm curious: which IC50 was measured for CNc1c(C(=O)NCCc2ccc(N3CCNCC3)cc2)sc2nc(C)ccc12 [Compound I-2] tested on USP25 (Homo sapiens)?
Reply: 100 to 1000 nM

Ask: I'm curious: which IC50 was measured for Cc1ccc2c(NCCN(C)C)c(C(=O)NCCc3ccc(N4C[C@H]5CC[C@@H](C4)N5)cc3)sc2n1 [Compound I-25] tested on USP25 (Homo sapiens)?
Reply: > 10000 nM

Ask: I'm curious: which IC50 was measured for CNc1c(C(=O)NCCc2cc(F)c(N3C[C@H]4CC[C@@H](C3)N4)c(F)c2)sc2nc(C)ccc12 [Compound I-43] tested on USP25 (Homo sapiens)?
Reply: > 10000 nM

Ask: I'm curious: which IC50 was measured for CCCCc1ccc2c(NC)c(C(=O)NCCc3ccc(N4C[C@H]5CC[C@@H](C4)N5)cc3)sc2n1 [Compound I-13] tested on USP25 (Homo sapiens)?
Reply: > 10000 nM

Ask: I'm curious: which IC50 was measured for CNc1c(C(=O)NCCc2ccc(N3C[C@H]4CC[C@@H](C3)N4)c(C(F)(F)F)c2)sc2nc(C)ccc12 [Compound I-41] tested on USP25 (Homo sapiens)?
Reply: > 10000 nM

Ask: I'm curious: which IC50 was measured for CCc1nc2sc(C(=O)NCCc3ccc(N4C[C@H]5CC[C@@H](C4)N5)cc3)c(NC)c2cc1C [Compound I-31] tested on USP25 (Homo sapiens)?
Reply: 100 to 1000 nM

Ask: I'm curious: which IC50 was measured for CNc1c(C(=O)NC2COc3cc(N4CC5CCC(C4)N5)ccc3C2)sc2nc(C)cnc12 (single isomer, unassigned) [Compound I-87] tested on USP25 (Homo sapiens)?
Reply: 100 to 1000 nM

====

# ASSAY_TARGET: USP25 (Homo sapiens, UniProt Q9UHP3)
# Construct: purchased R&D Systems
# Sequence (Q9UHP3 1-1055): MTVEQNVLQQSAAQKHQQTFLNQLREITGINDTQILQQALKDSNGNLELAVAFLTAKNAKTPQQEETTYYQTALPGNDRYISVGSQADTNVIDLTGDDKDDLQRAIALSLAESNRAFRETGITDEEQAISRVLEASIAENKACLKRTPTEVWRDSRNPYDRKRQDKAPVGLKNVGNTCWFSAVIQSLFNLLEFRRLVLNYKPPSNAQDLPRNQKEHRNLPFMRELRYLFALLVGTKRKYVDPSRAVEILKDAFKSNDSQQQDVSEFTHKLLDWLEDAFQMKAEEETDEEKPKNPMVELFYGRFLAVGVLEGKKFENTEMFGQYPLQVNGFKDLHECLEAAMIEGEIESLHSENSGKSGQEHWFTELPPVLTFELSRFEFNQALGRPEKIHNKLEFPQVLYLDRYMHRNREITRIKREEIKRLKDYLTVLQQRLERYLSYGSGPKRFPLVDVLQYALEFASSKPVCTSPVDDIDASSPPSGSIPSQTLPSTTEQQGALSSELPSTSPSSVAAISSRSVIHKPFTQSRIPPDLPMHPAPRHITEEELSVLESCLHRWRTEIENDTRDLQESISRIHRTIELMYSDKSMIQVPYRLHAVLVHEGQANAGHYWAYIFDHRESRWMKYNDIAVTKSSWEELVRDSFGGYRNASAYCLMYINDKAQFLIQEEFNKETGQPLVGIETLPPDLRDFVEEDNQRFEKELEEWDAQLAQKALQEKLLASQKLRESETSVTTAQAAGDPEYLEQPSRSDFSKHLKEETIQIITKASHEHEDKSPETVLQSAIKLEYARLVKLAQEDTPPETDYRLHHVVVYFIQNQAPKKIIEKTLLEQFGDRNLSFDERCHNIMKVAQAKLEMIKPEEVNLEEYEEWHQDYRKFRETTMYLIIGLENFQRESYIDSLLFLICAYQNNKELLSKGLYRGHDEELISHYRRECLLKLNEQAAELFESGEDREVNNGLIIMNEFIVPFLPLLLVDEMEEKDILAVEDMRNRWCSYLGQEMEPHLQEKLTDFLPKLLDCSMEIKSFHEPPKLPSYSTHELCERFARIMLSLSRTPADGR
# MEASUREMENT_PROTOCOL: USP25 activity measured using ubiquitin-rhodamine 110 method
# Format: biochemical
# ASSAY_CONTEXT: ratio of IC50 of related 3-NH2 compound (F) to IC50 of 3-NHMe compound disclosed herein (E)
PROPERTY_LABEL: IC50(F)/IC50(E) USP25

Ask: Using the record for `CNc1c(C(=O)N[C@H]2CCc3cc(N4CC5CCC(C4)N5)ccc3C2)sc2nc(C)ccc12` , report its IC50(F)/IC50(E) USP25.
Reply: >6

Ask: Using the record for `CNc1c(C(=O)NCCc2ccc(N3C[C@H]4CC[C@@H](C3)N4)cc2)sc2ncccc12` , report its IC50(F)/IC50(E) USP25.
Reply: >10

Ask: Using the record for `CNc1c(C(=O)NCCc2c[nH]c3ccccc23)sc2nc(C)ccc12` , report its IC50(F)/IC50(E) USP25.
Reply: >7

Ask: Using the record for `CNc1c(C(=O)NCCc2ccc(OC)c(OC)c2)sc2nc(C)ccc12` , report its IC50(F)/IC50(E) USP25.
Reply: >8

Ask: Using the record for `CNc1c(C(=O)NCCc2ccc(N3C[C@H]4CC[C@@H](C3)N4)c(F)c2)sc2nc(C)cnc12` , report its IC50(F)/IC50(E) USP25.
Reply: >20

Ask: Using the record for `CNc1c(C(=O)NCCc2ccc(N3C[C@H]4CC[C@@H](C3)N4)cc2)sc2nc(C)ccc12` , report its IC50(F)/IC50(E) USP25.
Reply: >20

Ask: Using the record for `CNc1c(C(=O)N[C@H]2COc3cc(N4CC5CCC(C4)N5)ccc3C2)sc2nc(C)ccc12` , report its IC50(F)/IC50(E) USP25.
Reply: >8
